# procedure details: Plasma and liver concentration of the compound after 4 days of administration in the cholestasis rat induced by ANIT
# Format: in vivo, SD rats
# run parameters: SD, liver, oral, 10 mg/kg/day, 2 h, 10 mg/kg/d, read-out: Liver concentration of the compound
Recorded concentration at 2 h, one value per entry.
parameter: concentration at 2 h (ng/g)

# compound smiles, test value
data = [
    ("O=C(O)c1ccc(-c2nnc(N3[C@@H]4CC[C@H]3C[C@@H](OCc3c(-c5c(Cl)cccc5Cl)noc3C3CC3)C4)o2)s1", 5660),
    ("O=C(O)c1ccc(-c2nnc(N3[C@@H]4CC[C@H]3C[C@@H](OCc3c(-c5c(Cl)cccc5Cl)noc3C3CC3)C4)o2)cc1", 986),
    ("O=C(O)c1ccc(-c2nnc(N3[C@@H]4CC[C@H]3C[C@@H](OCc3c(-c5ccccc5OC(F)(F)F)noc3C3CC3)C4)o2)cc1", 12300),
    ("Cc1cc(C(=O)O)ccc1-c1nnc(N2[C@@H]3CC[C@H]2C[C@@H](OCc2c(-c4c(Cl)cccc4Cl)noc2C2CC2)C3)o1", 7840),
]
